experiment: Stability in simulated gastric fluid; format: in vitro ADME; conditions: 2 μM peptidomimetic, simulated gastric fluid pH 1.5, 37° C.; read-out: half-life (t1/2) when incubated with simulated gastric fluid
readout_name: half-life at 2 μM (min)
Report the figure in min without appending any unit label.

Prompt line: Using the record for CCc1cc(OC)ccc1-c1ccc(CC(NC(=O)[C@H](CC(=O)O)NC(=O)[C@H](CO)NC(=O)[C@@H](NC(=O)[C@H](Cc2ccccc2)NC(=O)[C@@H](NC(=O)CNC(=O)C(CCC#N)NC(=O)C(C)(C)NC(=O)[C@@H](N)Cc2c[nH]cn2)[C@@H](C)O)[C@@H](C)O)C(=O)NC(CCCc2ccc(C(F)(F)F)cc2F)C(N)=O)cc1 (single isomer, unassigned) [compound 81] , report its half-life at 2 μM.
Response line: 240

Prompt line: Using the record for CCc1cc(OC)ccc1-c1ccc(CC(NC(=O)[C@H](CC(=O)O)NC(=O)[C@H](CO)NC(=O)[C@@H](NC(=O)[C@H](Cc2ccccc2)NC(=O)[C@@H](NC(=O)CNC(=O)C(CCC#N)NC(=O)C(C)(C)NC(=O)[C@@H](N)Cc2c[nH]cn2)[C@@H](C)O)[C@@H](C)O)C(=O)NC(CCCc2ccccc2C(F)(F)F)C(N)=O)cc1 (single isomer, unassigned) [compound 79] , report its half-life at 2 μM.
Response line: 30

Prompt line: Using the record for CCc1cc(OC)ccc1-c1ccc(CC(CNC(CCCc2ccccc2)C(N)=O)NC(=O)[C@H](CC(=O)O)NC(=O)[C@H](CO)NC(=O)[C@@H](NC(=O)C(C)(Cc2ccccc2F)NC(=O)[C@@H](NC(=O)CNC(=O)C(CCC#N)NC(=O)C(C)(C)NC(=O)[C@@H](N)Cc2c[nH]cn2)[C@H](C)O)[C@H](C)O)cc1 (single isomer, unassigned) [compound 190] , report its half-life at 2 μM.
Response line: 240

Prompt line: Using the record for CCc1cc(OC)ccc1-c1ccc(CC(NC(=S)[C@H](CC(=O)O)NC(=O)[C@H](CO)NC(=O)[C@@H](NC(=O)C(C)(Cc2ccccc2F)NC(=O)[C@@H](NC(=O)CNC(=O)C(CCC#N)NC(=O)C(C)(C)NC(=O)[C@@H](N)Cc2c[nH]cn2)[C@H](C)O)[C@H](C)O)C(=S)NC(CCCc2ccccc2F)C(N)=O)cc1 (single isomer, unassigned) [compound 180] , report its half-life at 2 μM.
Response line: 240

Prompt line: Using the record for CCc1cc(OC)ccc1-c1ccc(CC(CNC(CCCc2ccccc2)C(N)=O)NC(=O)[C@H](CC(=O)O)NC(=O)[C@H](CO)NC(=O)[C@@H](NC(=O)C(C)(Cc2ccccc2F)NC(=O)[C@@H](NC(=O)CNC(=O)[C@H](CCC(N)=O)NC(=O)C(C)(C)NC(=O)[C@H](Cc2c[nH]cn2)NC(C)=O)[C@H](C)O)[C@H](C)O)cc1 (single isomer, unassigned) [compound 185] , report its half-life at 2 μM.
Response line: 240

###

test: Stability in liver microsomes; assay type: in vitro ADME; details: 2 μM peptidomimetic, human liver microsomes, 37° C., 24 h
readout_name: % degradation of peptidomimetics in 24 h when incubated with liver microsomes (%)
Report the figure in % without appending any unit label.

Prompt line: Using the record for CCc1cc(OC)ccc1-c1ccc(CC(NC(=O)[C@H](CC(=O)O)NC(=O)[C@H](CO)NC(=O)[C@@H](NC(=O)[C@H](Cc2ccccc2)NC(=O)[C@@H](NC(=O)CNC(=O)C(CCC#N)NC(=O)C(C)(C)NC(=O)[C@@H](N)Cc2c[nH]cn2)[C@@H](C)O)[C@@H](C)O)C(=O)NC(CCCc2ccccc2F)C(N)=O)cc1 (single isomer, unassigned) , report its % degradation of peptidomimetics in 24 h when incubated with liver microsomes.
Response line: 100

Prompt line: Using the record for CCc1cc(OC)ccc1-c1ccc(CC(NC(=O)[C@H](CC(=O)O)NC(=O)[C@H](CO)NC(=O)[C@@H](NC(=O)[C@H](Cc2ccccc2)NC(=O)[C@@H](NC(=O)CNC(=O)C(CCC#N)NC(=O)C(C)(C)NC(=O)[C@@H](N)Cc2c[nH]cn2)[C@@H](C)O)[C@@H](C)O)C(=O)NC(CCCc2ccc(F)cc2F)C(N)=O)cc1 (single isomer, unassigned) , report its % degradation of peptidomimetics in 24 h when incubated with liver microsomes.
Response line: 100

Prompt line: Using the record for CCc1cc(OC)ccc1-c1ccc(CC(NC(=O)[C@H](CC(=O)O)NC(=O)[C@H](CO)NC(=O)[C@@H](NC(=O)C(C)(Cc2ccccc2F)NC(=O)[C@@H](NC(=O)CNC(=O)[C@H](CC(C(F)(F)F)C(F)(F)F)NC(=O)C(C)(C)NC(=O)[C@@H](N)Cc2c[nH]cn2)[C@H](C)O)[C@H](C)O)C(=O)NC(CCCc2ccccc2F)C(N)=O)cc1 (stereo partly drawn) , report its % degradation of peptidomimetics in 24 h when incubated with liver microsomes.
Response line: 100

Prompt line: Using the record for CCc1cc(OC)ccc1-c1ccc(CC(NC(=S)[C@H](CC(=O)O)NC(=O)[C@H](CO)NC(=O)[C@@H](NC(=O)C(C)(Cc2ccccc2F)NC(=O)[C@@H](NC(=O)CNC(=O)C(CCC#N)NC(=O)C(C)(C)NC(=O)[C@@H](N)Cc2c[nH]cn2)[C@H](C)O)[C@H](C)O)C(=S)NC(CCCc2ccccc2F)C(N)=O)cc1 (single isomer, unassigned) , report its % degradation of peptidomimetics in 24 h when incubated with liver microsomes.
Response line: 86

Prompt line: Using the record for CCc1cc(OC)ccc1-c1ccc(CC(NC(=O)[C@H](CC(=O)O)NC(=O)[C@H](CO)NC(=O)[C@@H](NC(=O)C(C)(Cc2ccccc2F)NC(=O)[C@@H](NC(=O)CNC(=O)C(CCC#N)NC(=O)C(C)(C)NC(=O)[C@H](Cc2c[nH]cn2)NC(C)=O)[C@@H](C)O)[C@@H](C)O)C(=O)NC(CCCc2ccccc2F)C(N)=O)cc1 (single isomer, unassigned) , report its % degradation of peptidomimetics in 24 h when incubated with liver microsomes.
Response line: 26

Prompt line: Using the record for CCc1cc(OC)ccc1-c1ccc(CC(CNC(CCCc2ccccc2)C(N)=O)NC(=O)[C@H](CC(=O)O)NC(=O)[C@H](CO)NC(=O)[C@@H](NC(=O)C(C)(Cc2ccccc2F)NC(=O)[C@@H](NC(=O)CNC(=O)C(CCC#N)NC(=O)C(C)(C)NC(=O)[C@@H](N)Cc2c[nH]cn2)[C@H](C)O)[C@H](C)O)cc1 (single isomer, unassigned) , report its % degradation of peptidomimetics in 24 h when incubated with liver microsomes.
Response line: 85

###

target: Human GLP-1 receptor (Homo sapiens, UniProt P43220); construct: The full-length cDNA was cloned in pcDNA3.1(+); expressed in transfected cells; assay: In vitro Human GLP-1 R agonist activity (cyclic AMP determination) in CHO/human GLP1R cells; format: cell-based; conditions: 10 nM test compound
Sequence (P43220 24-463): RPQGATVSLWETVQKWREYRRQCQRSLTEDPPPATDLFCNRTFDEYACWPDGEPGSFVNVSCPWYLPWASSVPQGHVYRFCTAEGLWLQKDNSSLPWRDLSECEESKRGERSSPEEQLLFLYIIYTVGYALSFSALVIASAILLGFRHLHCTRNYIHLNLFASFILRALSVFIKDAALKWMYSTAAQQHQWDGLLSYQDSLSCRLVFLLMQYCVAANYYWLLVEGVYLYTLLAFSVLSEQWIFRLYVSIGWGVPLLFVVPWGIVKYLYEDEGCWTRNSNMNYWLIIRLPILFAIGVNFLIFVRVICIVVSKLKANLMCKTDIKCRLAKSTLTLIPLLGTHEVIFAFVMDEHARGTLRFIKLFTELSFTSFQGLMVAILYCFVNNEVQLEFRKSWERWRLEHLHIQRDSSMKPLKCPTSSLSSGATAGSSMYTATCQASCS
Would you mind telling me the reported Human GLP-1 R activity (cAMP release), % activity with respect to control of each entry?

Prompt line: Using the record for CCc1cc(OC)ccc1-c1ccc(CC(CNC(CCCc2ccccc2F)C(N)=O)NC[C@H](CC(=O)O)NC(=O)[C@H](CO)NC(=O)[C@@H](NC(=O)C(C)(Cc2ccccc2F)NC(=O)[C@@H](NC(=O)CNC(=O)C(CCC#N)NC(=O)C(C)(C)NC(=O)[C@@H](N)Cc2c[nH]cn2)[C@H](C)O)[C@H](C)O)cc1 (single isomer, unassigned) , report its Human GLP-1 R activity (cAMP release), % activity with respect to control.
Response line: 99 ± 0.46%

Prompt line: Using the record for CCc1cc(OC)ccc1-c1ccc(CC(NC(=O)[C@H](CC(=O)O)NC(=O)[C@H](CO)NC(=O)[C@@H](NC(=O)[C@H](Cc2ccccc2)NC(=O)[C@@H](NC(=O)CNC(=O)[C@H](CCC(N)=O)NC(=O)[C@H](CO)NC(=O)[C@@H](N)Cc2c[nH]cn2)[C@@H](C)O)[C@@H](C)O)C(=O)NC(CCCc2ccccc2F)C(N)=O)cc1 (single isomer, unassigned) , report its Human GLP-1 R activity (cAMP release), % activity with respect to control.
Response line: 86 ± 0.40%

###

Would you mind telling me the reported % degradation of peptidomimetics in 24 h when incubated with simulated intestinal fluid of each entry?
test: Stability in simulated intestinal fluid; assay type: in vitro ADME; conditions: 2 μM peptidomimetic, simulated intestinal fluid pH 7.5, 37° C., 24 h
Starred links: 1 amine or outer side, 2 acyl side, 3 side chain; linkers in the order of their positions; H or OH if unused. Non-standard residues stand in square brackets, D forms with d. Residues, ends and D or L forms follow the SMILES beside them. ξ: configuration not given here. *: point of attachment. Leu(5,5,5,5',5',5'-F6) = N[C@@H](CC(C(F)(F)F)C(F)(F)F)C(=O)O; X4 = CCc1cc(OC)ccc1-c1ccc(CC(CNC(CCCc2ccccc2F)C(N)=O)N*)cc1; ξBip(2'-Et-4'-OMe) = CCc1cc(OC)ccc1-c1ccc(CC(N)C(=O)O)cc1; X1 = O=C(C(CCCc1ccc(C(F)(F)F)cc1F)N[*:1])[*:2]; ξαMePhe(2-F) = CC(N)(Cc1ccccc1F)C(=O)O; aThr = C[C@H](O)[C@H](N)C(=O)O; Aib = CC(C)(N)C(=O)O
Report the figure in % without appending any unit label.

Prompt line: Using the record for CCc1cc(OC)ccc1-c1ccc(CC(CNC(CCCc2ccccc2)C(N)=O)NC(=O)[C@H](CC(=O)O)NC(=O)[C@H](CO)NC(=O)[C@@H](NC(=O)C(C)(Cc2ccccc2F)NC(=O)[C@@H](NC(=O)CNC(=O)[C@H](CCC(N)=O)NC(=O)C(C)(C)NC(=O)[C@H](Cc2c[nH]cn2)NC(C)=O)[C@H](C)O)[C@H](C)O)cc1 (single isomer, unassigned) , report its % degradation of peptidomimetics in 24 h when incubated with simulated intestinal fluid.
Response line: 00

Prompt line: Using the record for CCc1cc(OC)ccc1-c1ccc(CC(CNC(CCCc2ccccc2F)C(N)=O)NC(=O)[C@H](CC(=O)O)NC(=O)[C@H](CO)NC(=O)[C@@H](NC(=O)C(C)(Cc2ccccc2F)NC(=O)[C@@H](NC(=O)CNC(=O)[C@H](CC(C(F)(F)F)C(F)(F)F)NC(=O)C(C)(C)NC(=O)[C@@H](N)Cc2c[nH]cn2)[C@H](C)O)[C@H](C)O)cc1 (stereo partly drawn) [compound 214] (H-H[Aib][Leu(5,5,5,5',5',5'-F6)]G[aThr][ξαMePhe(2-F)][aThr]SD-X4) , report its % degradation of peptidomimetics in 24 h when incubated with simulated intestinal fluid.
Response line: 100

Prompt line: Using the record for CCc1cc(OC)ccc1-c1ccc(CC(NC(=O)[C@H](CC(=O)O)NC(=O)[C@H](CO)NC(=O)[C@@H](NC(=O)[C@H](Cc2ccccc2)NC(=O)[C@@H](NC(=O)CNC(=O)[C@H](CCC(N)=O)NC(=O)[C@H](CO)NC(=O)[C@@H](N)Cc2c[nH]cn2)[C@@H](C)O)[C@@H](C)O)C(=O)NC(CCCc2ccc(C(F)(F)F)cc2F)C(N)=O)cc1 (stereo partly drawn) [compound 49] (H-HSQGTFTSD[ξBip(2'-Et-4'-OMe)][X1]-NH2) , report its % degradation of peptidomimetics in 24 h when incubated with simulated intestinal fluid.
Response line: 45
